The measurements presented in this section are drawn from PubChem BioAssay (NCI).

Experiment: NCI Yeast Anticancer Drug Screen. Data for the cln2 rad14 strain (AID 165);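 note: 0% = growth equal to vehicle treated cultures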
Conditions: S. cerevisiae cln2 rad14 strain, active compounds read high; at 50.0 µM unless noted
About 79,000 compounds went through this panel and 15% of them were active in at least one assay; those are over-represented in the sample as a whole. Active and inactive are the calls of the source. Cut-off read from the data, not from the text of the source: active = growth inhibition above about 70%; inactive = the rest.
Reported growth inhibition values follow for various compounds

>  <compound>
O=C(O)CSc1nc2ccccc2[nH]1

>  <growth inhibition>
-13.9% (inactive)

$$$$
>  <compound>
CCOC(=O)c1c(C(=O)OCC)c2cccn2c2c1cnn2-c1ccccc1

>  <growth inhibition>
5.55% (inactive)

$$$$
>  <compound>
CCOC(=O)C(CCc1ccccc1)C(C)=O (configuration not stated)

>  <growth inhibition>
40.5% (inactive)

$$$$
>  <compound>
CC1(O)CC(=O)c2c(cc3ccc(-c4c5c(c(O)c6c(O)cccc46)C(=O)CC(C)(O)C5)c(O)c3c2O)C1 (configuration not stated)

>  <growth inhibition>
23.8% (inactive)

$$$$
>  <compound>
CC(=O)ONC(C(=O)C(C)(C)C)C(=O)C(C)(C)C

>  <growth inhibition>
24.7% (inactive)

$$$$
>  <compound>
CC1(C)OCC(N)[C@@H](O)CO1 (some centres not stated)

>  <growth inhibition>
-26.2% (inactive)

$$$$
>  <compound>
CC(O)C(=O)N(CCO)c1ccccc1 (configuration not stated)

>  <growth inhibition>
3.25% (inactive)

$$$$
